Tested on: Staphylococcus aureus
test_summary: Antibiofilm activity against methicillin-resistant Staphylococcus aureus assessed as inhibition of biofilm formation by measuring residual biofilm growth incubated for overnight at 10-fold dilution by crystal violet staining based microtiter plate assay relative to control
Format: functional
Non-standard residues stand in square brackets, D forms with d. Residues, ends and D or L forms follow the SMILES beside them. hArg = N=C(N)NCCCC[C@H](N)C(=O)O; Agb = N=C(N)NCC[C@H](N)C(=O)O; Agp = N=C(N)NC[C@H](N)C(=O)O; Orn = NCCC[C@H](N)C(=O)O; Dap = NC[C@H](N)C(=O)O
measurement_type: residual biofilm growth (% of control) (%)
The reply should be a number in %, with the unit left off.

Prompt: Dear colleague, I am looking for the recorded residual biofilm growth (% of control) of the following compound: CC[C@H](C)[C@H](NC(=O)[C@H](CCCNC(=N)N)NC(=O)[C@@H](NC(=O)[C@H](C)NC(=O)[C@@H](NC(=O)[C@H](CN)NC(=O)[C@H](CC(C)C)NC(=O)[C@H](CCCNC(=N)N)NC(=O)[C@@H](N)C(C)C)C(C)C)C(C)C)C(=O)N[C@@H](Cc1c[nH]c2ccccc12)C(=O)N[C@@H](CCCNC(=N)N)C(=O)N[C@@H](CCCNC(=N)N)C(N)=O (H-VRL[Dap]VAVRIWRR-NH2)
Response: 108.3

Prompt: Dear colleague, I am looking for the recorded residual biofilm growth (% of control) of the following compound: CC[C@H](C)[C@H](NC(=O)[C@H](CNC(=N)N)NC(=O)[C@@H](NC(=O)[C@H](C)NC(=O)[C@@H](NC(=O)[C@@H](NC(=O)[C@H](CC(C)C)NC(=O)[C@H](CCCNC(=N)N)NC(=O)[C@@H](N)C(C)C)[C@@H](C)CC)C(C)C)C(C)C)C(=O)N[C@@H](Cc1c[nH]c2ccccc12)C(=O)N[C@@H](CCCNC(=N)N)C(=O)N[C@@H](CCCNC(=N)N)C(N)=O (H-VRLIVAV[Agp]IWRR-NH2)
Response: 102.2

Prompt: Dear colleague, I am looking for the recorded residual biofilm growth (% of control) of the following compound: CC[C@H](C)[C@H](NC(=O)[C@H](CCCN)NC(=O)[C@@H](NC(=O)[C@H](C)NC(=O)[C@@H](NC(=O)[C@@H](NC(=O)[C@H](CC(C)C)NC(=O)[C@H](CCCNC(=N)N)NC(=O)[C@@H](N)C(C)C)[C@@H](C)CC)C(C)C)C(C)C)C(=O)N[C@@H](Cc1c[nH]c2ccccc12)C(=O)N[C@@H](CCCNC(=N)N)C(=O)N[C@@H](CCCNC(=N)N)C(N)=O (H-VRLIVAV[Orn]IWRR-NH2)
Response: 14

Prompt: Dear colleague, I am looking for the recorded residual biofilm growth (% of control) of the following compound: CC[C@H](C)[C@H](NC(=O)[C@H](CCCNC(=N)N)NC(=O)[C@@H](NC(=O)[C@H](CCNC(=N)N)NC(=O)[C@@H](NC(=O)[C@@H](NC(=O)[C@H](CC(C)C)NC(=O)[C@H](CCCNC(=N)N)NC(=O)[C@@H](N)C(C)C)[C@@H](C)CC)C(C)C)C(C)C)C(=O)N[C@@H](Cc1c[nH]c2ccccc12)C(=O)N[C@@H](CCCNC(=N)N)C(=O)N[C@@H](CCCNC(=N)N)C(N)=O (H-VRLIV[Agb]VRIWRR-NH2)
Response: 105.9

Prompt: Dear colleague, I am looking for the recorded residual biofilm growth (% of control) of the following compound: CC[C@H](C)[C@H](NC(=O)[C@H](CCCNC(=N)N)NC(=O)[C@@H](NC(=O)[C@H](C)NC(=O)[C@@H](NC(=O)[C@H](CCCCNC(=N)N)NC(=O)[C@H](CC(C)C)NC(=O)[C@H](CCCNC(=N)N)NC(=O)[C@@H](N)C(C)C)C(C)C)C(C)C)C(=O)N[C@@H](Cc1c[nH]c2ccccc12)C(=O)N[C@@H](CCCNC(=N)N)C(=O)N[C@@H](CCCNC(=N)N)C(N)=O (H-VRL[hArg]VAVRIWRR-NH2)
Response: 107.6
